This collection of values is drawn from the supplement of paper PMC4862054.

tested on: MDA-MB-436; assay: normalised response (% of control), CellTiter-Glo; higher = more viable cells (100 = DMSO, 0 = benzethonium chloride kill control); details: incubation time: 72 h
quantity kind: normalised response

compound="COc1cc2c(NC3CCN(C(C)C)CC3)nc(N3CCC(F)(F)CC3)nc2cc1OCCCN1CCCC1 [UNC0642] (10000 nM)" observed_value=19.1%
compound="CNC(=O)c1ccc(N2C(=S)N(c3ccc(C#N)c(C(F)(F)F)c3)C(=O)C23CCC3)cc1F [RD162] (10000 nM)" observed_value=92.6%
compound="CN(C)CCOc1ccc(/C(=C(/CCCl)c2ccccc2)c2ccccc2)cc1 [Toremifene] (10000 nM)" observed_value=83.7%
compound="CO[C@H]1C[C@@H]2CC[C@@H](C)[C@@](O)(O2)C(=O)C(=O)N2CCCC[C@H]2C(=O)O[C@H]([C@H](C)C[C@@H]2CC[C@@H](OP(C)(C)=O)[C@H](OC)C2)CC(=O)[C@H](C)/C=C(\\C)[C@@H](O)[C@@H](OC)C(=O)[C@H](C)C[C@H](C)/C=C/C=C/C=C/1C [Ridaforolimus] (100 nM)" observed_value=82.5%
compound="CN(C)c1nc(N(C)C)nc(N(C)C)n1 [Altretamine] (10000 nM)" observed_value=107%
compound="S=P(N1CC1)(N1CC1)N1CC1 [Thio-TEPA] (50000 nM)" observed_value=104%
